- Read-out: Collagen I, COL1A1 (gene 1277)
- Measurement notes: BSK_hDFCGF_CollagenI: BioMAP Diversity Plus: hDFCGF Assay for Collagen I Biomarker Activity (AID 2284250)
- Condition summary: primary human foreskin fibroblasts
The source made the active and inactive calls. Rule for the calls: active = hit-call score of the fitted dose curve at least 0.9, where 1 is the maximum; inactive = score below 0.9.
Quantity: outcome

Known results for compounds:
Line notation	outcome
COC(=O)CCC(F)(F)C(F)(F)C(F)(F)C(F)(F)F	inactive
O=S(=O)(O)C(F)(F)C(F)(F)C(F)(F)C(F)(F)C(F)(F)C(F)(F)C(F)(F)F	inactive
FC(F)(F)C(F)(F)C(F)(F)C(F)(F)C(F)(F)CCI	inactive
O=C(O)C(F)(F)C(F)(F)C(F)(F)C(F)(F)F	inactive
O=C(CC(=O)C(F)(F)C(F)(F)F)C(F)(F)F	inactive

INPUT: Give its outcome value. Item: FC(F)(F)C(F)(F)C(F)(F)CI
OUTPUT: inactive

INPUT: Give the measured outcome of OCC(F)(F)C(F)(F)C(F)(F)C(F)F .
OUTPUT: inactive

INPUT: Given the compound O=S(=O)(OCC(F)F)C(F)(F)F , what is its reported outcome?
OUTPUT: inactive

INPUT: Data request, read-out outcome, for FC(F)(F)C(F)(F)CNCC(F)(F)C(F)(F)F
OUTPUT: inactive

====

- Measurement notes: CPHEA_Stoker_NIS_Cytotoxicity: Cytotoxicity Assessment for CPHEA's Radioactive Iodide Uptake (RAIU) Assay for Sodium/Iodide Symporter (NIS) Inhibition, Stoker and Laws Labs (AID 2283897);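 for AC50: active means loss of ATP signal versus DMSO meaning cytotoxicity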
Activity calls are given as the source filed them. Rule for the calls: active = hit-call score of the fitted dose curve at least 0.9, where 1 is the maximum; inconclusive = response in the unintended direction; inactive = score below 0.9.

Molecule	AC50
O=C(OCCOCCOCCOC(=O)c1ccccc1)c1ccccc1	inactive
CCCCCCOC(=O)c1ccccc1O	inactive
CC(Cc1ccc(O)c(O)c1)C(C)Cc1ccc(O)c(O)c1 (centres undefined)	84 µM (active)
C(=C(c1ccccc1)c1ccccc1)c1ccccc1	inactive

====

- Measurement notes: ATG_Oct_MLP_CIS: Attagene CIS-FACTORIAL HepG2 Assay for human Octamer-Binding Transcription Factor (Oct) (AID 2282993)
- Condition summary: HepG2 Attagene cis-factorial Oct reporter, mRNA; actives raise or lower the signal
Calls of active or inactive are those of the source. How the source made its calls: active means hit-call score of the fitted dose curve at least 0.9, where 1 is the maximum; inactive means score below 0.9.
Thanks in advance; please answer with one of these: 1 (yes) = active, 0 (no) = inactive

Molecule	Label value
O=C(O)C(F)(F)C(F)(F)C(F)(F)C(F)(F)C(F)(F)C(F)(F)C(F)(F)C(F)(F)C(F)(F)C(F)F	0 (no)
C=CC(F)(F)C(F)(F)C(F)(F)C(F)(F)C(F)(F)C(F)(F)C(F)(F)C(F)(F)F	0 (no)
O=C(O)C(F)(F)C(F)(F)C(F)(F)F	0 (no)
Nc1ccc([N+](=O)[O-])cc1O	0 (no)
C=CC(=O)OCC(F)(F)C(F)(F)C(F)(F)C(F)(F)C(F)(F)C(F)(F)C(F)(F)F	0 (no)

INPUT: Test call, this molecule: FC(F)(F)C(F)(F)C(F)(F)C(F)(F)C(F)(F)C(F)(F)C(F)(F)I
OUTPUT: 0 (no)

INPUT: Just curious, what result did O=C(O)C=C(C(F)(F)F)C(F)(F)F get here?
OUTPUT: 0 (no)

INPUT: Hello, I am checking results. What call was entered for CCCCCCCCCCCCCCCC[N+](C)(C)Cc1ccccc1 ?
OUTPUT: 0 (no)

INPUT: Can you look up the reported call for CC(C)(C)c1ccc(OC2CCCCC2O)cc1 (stereo unspecified) for me?
OUTPUT: 0 (no)

INPUT: GET /call?item= Cc1cccc(N(C)C)c1 returns the recorded outcome of this test.
OUTPUT: 0 (no)

INPUT: Which outcome was assigned to CS(C)(=O)=O in this test?
OUTPUT: 0 (no)

INPUT: Per the assay record, what outcome was assigned to CC(Cc1ccc(O)c(O)c1)C(C)Cc1ccc(O)c(O)c1 (stereo unspecified) ?
OUTPUT: 1 (yes)

INPUT: // outcome(item) with item = FC(F)(F)C(F)(F)C(F)(F)C(F)(F)CCI
OUTPUT: 0 (no)

INPUT: Any idea what this test logged for CC(=O)Nc1ccc(N=Nc2cc(C)ccc2O)cc1 ?
OUTPUT: 0 (no)

INPUT: Could you kindly confirm the outcome this assay logged for CC(C)OC(=O)c1ccccc1C(=O)OC(C)C ?
OUTPUT: 0 (no)

INPUT: For FC(F)(Br)C(F)(F)C(F)(F)C(F)(F)C(F)(F)C(F)(F)Br , what call appears in the results of this test?
OUTPUT: 0 (no)

INPUT: Dear all, I need the recorded test outcome for CCCCCCOC(=O)c1ccccc1 , thank you.
OUTPUT: 0 (no)

INPUT: Any idea what this test logged for c1ccc(-c2ccccc2-c2ccccc2)cc1 ?
OUTPUT: 0 (no)

INPUT: Could you kindly confirm the outcome this assay logged for CCCCNc1ccccc1 ?
OUTPUT: 0 (no)

INPUT: What is the recorded call for this molecule in the test? O=S(=O)(OCC(F)F)C(F)(F)F
OUTPUT: 0 (no)

INPUT: How did this test come out for Cc1ccc(S(=O)(=O)OCC(F)(F)C(F)(F)C(F)(F)C(F)(F)C(F)(F)C(F)F)cc1 ?
OUTPUT: 0 (no)

INPUT: Identify the outcome logged in this assay for the molecule shown: O=S(=O)(O)c1ccc2ccccc2c1
OUTPUT: 0 (no)

INPUT: # fetch the recorded call for FC(F)(F)C(F)(F)C(F)(F)C(F)(F)C(F)(F)C(F)(F)CC1CO1 (stereo unspecified) here
OUTPUT: 0 (no)

INPUT: So what was the verdict on NC(=O)C(F)(F)C(F)(F)C(F)(F)C(F)(F)F in this test?
OUTPUT: 0 (no)

INPUT: In this assay, the call recorded for CCCCCCS was what?
OUTPUT: 0 (no)

INPUT: Tell me the recorded outcome of this test for O=C(O)C(F)(F)C(F)(F)OC(F)(F)F .
OUTPUT: 0 (no)

====

- Measurement notes: BSK_BT_PBMCCytotoxicity: PBMC Cytotoxicity Assessment in the BioMAP Diversity Plus: BT Assay (AID 2284225);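 note: PBMC viability measured by Alamar Blue dye reduction fluorescence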
- Condition summary: primary human B cells with PBMC
The source made the active and inactive calls. Rule for the calls: active = hit-call score of the fitted dose curve at least 0.9, where 1 is the maximum; inactive = score below 0.9.
Pick one and only one: active, inactive

These solved cases illustrate the format of a correct answer.
Line notation	Label value
C#C[C@]1(O)CC[C@H]2[C@@H]3CCc4cc(OC)ccc4[C@H]3CC[C@@]21C	inactive
O=C(O)C(F)(F)C(F)(F)C(F)(F)C(F)(F)F	inactive
C=CC/C=C/C/C=C/C/C=C/C	inactive
CCCCCCCCCCCCCCCC[N+](C)(C)Cc1ccccc1	active

INPUT: Recorded test call requested for O=C(O)C(F)(F)C(F)(F)C(F)(F)C(F)(F)C(F)(F)C(F)(F)C(F)(F)C(F)(F)C(F)(F)C(F)(F)C(F)(F)C(F)(F)C(F)(F)F
OUTPUT: inactive

INPUT: What was the test verdict on OCCCC(F)(F)C(F)(F)C(F)(F)F ?
OUTPUT: inactive

INPUT: Test call, this compound: O=C(O)C(F)(F)C(F)(F)C(F)(F)C(F)(F)C(F)(F)C(F)(F)C(F)(F)C(F)(F)C(F)(F)C(F)(F)C(F)(F)C(F)(F)F
OUTPUT: inactive

INPUT: What did the test return for CO[Si](OC)(c1ccccc1)c1ccccc1 ?
OUTPUT: inactive

INPUT: // param item: OCC(F)(F)C(F)(F)C(F)(F)C(F)(F)C(F)(F)C(F)F ; yields the recorded call
OUTPUT: inactive

INPUT: Test call, this compound: OCC(F)(F)C(F)(F)C(F)(F)F
OUTPUT: inactive

====

- Measurement notes: BSK_LPS_SRB: Viability Assessment in the BioMAP Diversity Plus: LPS Assay (AID 2283079);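 note: total protein by sulforhodamine B absorbance as a cytotoxicity measure; measured one day after compound addition; fitted in both directions against DMSO so loss or gain of signal counts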
- Condition summary: primary human HUVEC with PBMC
The source made the active and inactive calls. How the source made its calls: active means hit-call score of the fitted dose curve at least 0.9, where 1 is the maximum; inactive means score below 0.9.
Answer with one of the outcomes active, inactive

Molecule	Label value
Cc1ccc(S(=O)(=O)OCC(F)(F)C(F)(F)C(F)(F)C(F)(F)C(F)(F)C(F)F)cc1	inactive

INPUT: In this assay, the call recorded for O=S(=O)(OCCOC(F)(F)F)C(F)(F)F was what?
OUTPUT: inactive

INPUT: Per the records of this test, what outcome belongs to C=C(C)C(=O)OCC(F)(F)C(F)(F)C(F)(F)F ?
OUTPUT: inactive

INPUT: For this molecule, state the assay outcome: CC(CCl)OP(=O)(OC(C)CCl)OC(C)CCl (configuration not stated)
OUTPUT: inactive

INPUT: Status in this test for O=C(O)C(F)(F)C(F)(F)C(F)F ?
OUTPUT: inactive

INPUT: Given O=C(O)C(F)(OC(F)(F)C(F)(OC(F)(F)C(F)(OC(F)(F)C(F)(F)C(F)(F)F)C(F)(F)F)C(F)(F)F)C(F)(F)F (configuration not stated) , state the outcome it received in this test.
OUTPUT: inactive

INPUT: Status in this test for CCc1ccc(C(c2ccc(CC)cc2)C(Cl)Cl)cc1 ?
OUTPUT: active

INPUT: Query: recorded result category for Nc1ccc([N+](=O)[O-])cc1O in this test
OUTPUT: inactive

INPUT: Please let me know the test result on file for CCc1c(Br)c(Br)c(Br)c(Br)c1Br .
OUTPUT: inactive

INPUT: Would you mind telling me which call this test gave FC(F)(F)C(F)(F)C(F)(F)C(F)(F)C(F)(F)C(F)(F)C(F)(F)I ?
OUTPUT: inactive

INPUT: Recorded call for O=S(=O)(O)C(F)(F)C(F)(F)C(F)(F)C(F)(F)C(F)(F)C(F)(F)C(F)(F)F ?
OUTPUT: inactive

Origin of measurements: PubChem BioAssay (EPA / NIEHS)
